- Target: T1, HER2 on SKBR3 cells (human, UniProt P04626 23-1255)
- T1 construct: whole, on cells; also called ErbB2; HER2 p185 tyrosine kinase
- Protocol Notes: FMAT on SKBR3 cells; competitor labeled Herceptin
Attribute Measured: binding result

Here's what some known entries look like.
[Q] Name the reported binding result value associated with the binder 2A5-9GS-2A5 (VHH, bivalent Nanobody, two VHH joined by a 9GS linker) EVQLVESGGGLVQPGGSLRLSCATSGFTFDDYAMTWVRQAPGKGLEWVSSINWSGTHTDYTDSVKGRFTISRNNANNTLYLQMNSLKSEDTAVYYCAKNWGDAGTTWFEKSGSAGQGTQVTVSSGGGGSGGGSEVQLVESGGGLVQPGGSLRLSCATSGFTFDDYAMTWVRQAPGKGLEWVSSINWSGTHTDYTDSVKGRFTISRNNANNTLYLQMNSLKSEDTAVYYCAKNWGDAGTTWFEKSGSAGQGTQVTVSS
[A] binds

[Q] Return reported binding result; argument: 2A4-9GS-2A4 (VHH, bivalent Nanobody, two VHH joined by a 9GS linker) EVQLVESGGGLVQPGGSLRLSCAASGFIFDDYAMSWVRQAPGKGLEWVSAINWSGSHRNYADSVKGRFTISRDNAKKTVYLQMNSLQSEDTAVYYCGTGWQSTTKNQGYWGQGTQVTVSSGGGGSGGGSEVQLVESGGGLVQPGGSLRLSCAASGFIFDDYAMSWVRQAPGKGLEWVSAINWSGSHRNYADSVKGRFTISRDNAKKTVYLQMNSLQSEDTAVYYCGTGWQSTTKNQGYWGQGTQVTVSS
[A] binds

[Q] Need binding result, item 27A5-35GS-2D3 (bispecific antibody, biparatopic Nanobody, 35GS linker; c-myc, His6-tagged) EVQLVESGGGLVQAGGSLNLSCVASGIPFSTRTMAWYRQPPGNERDWVATIRSGAPVYADSVKGRFTVSRDNAKNTLYLQMNSLEPEDTATYYCWDVNGDIWGQGTPVTVSSGGGGSGGGGSGGGGSGGGGSGGGGSGGGGSGGGGSEVQLVESGGSLVQPGGSLRLSCAASGFTFDDYAMSWVRQVPGKGLEWVSSINWSGTHTDYADSVKGRFTISRNNANNTLYLQMNSLKSEDTAVYYCAKNWRDAGTTWFEKSGSAGQGTQVTVSS
[A] binds

[Q] // lookup binding result for 27H3-35GS-2D3 (other, biparatopic Nanobody, 35GS linker; c-myc, His6-tagged) EVQLVESGGSLVQPGGSLRLSCAASGFTFDDYAMTWVRQASGKGLEWVSSINWSGTHTDYTDSVKGRFTISRNNANNTLYLQMNSLKSEDTAVYYCAKNWGDAGTTWFEKSGSAGQGTQVTVSSGGGGSGGGGSGGGGSGGGGSGGGGSGGGGSGGGGSEVQLVESGGSLVQPGGSLRLSCAASGFTFDDYAMSWVRQVPGKGLEWVSSINWSGTHTDYADSVKGRFTISRNNANNTLYLQMNSLKSEDTAVYYCAKNWRDAGTTWFEKSGSAGQGTQVTVSS
[A] binds

[Q] # input binder: 2D3-9GS-2D3 (VHH, bivalent Nanobody, two VHH joined by a 9GS linker) EVQLVESGGSLVQPGGSLRLSCAASGFTFDDYAMSWVRQVPGKGLEWVSSINWSGTHTDYADSVKGRFTISRNNANNTLYLQMNSLKSEDTAVYYCAKNWRDAGTTWFEKSGSAGQGTQVTVSSGGGGSGGGSEVQLVESGGSLVQPGGSLRLSCAASGFTFDDYAMSWVRQVPGKGLEWVSSINWSGTHTDYADSVKGRFTISRNNANNTLYLQMNSLKSEDTAVYYCAKNWRDAGTTWFEKSGSAGQGTQVTVSS ; wanted: its binding result
[A] binds

Attention now shifts to the item below.
[Q] Given the entry 2C3-9GS-2C3 (VHH, bivalent Nanobody, two VHH joined by a 9GS linker) EVQLVESGGGLVQPGGSLRLSCVASGFSLDDYGMTWVRQAPGKGLEWVSSINWSGTHTDYADSVKGRFTISRDNAKNTLFLQMNSLRSEDTAVYYCNQGWKIVPTDRTGHGTQVTVSSGGGGSGGGSEVQLVESGGGLVQPGGSLRLSCVASGFSLDDYGMTWVRQAPGKGLEWVSSINWSGTHTDYADSVKGRFTISRDNAKNTLFLQMNSLRSEDTAVYYCNQGWKIVPTDRTGHGTQVTVSS , report its measured binding result.
[A] binds
